test: Particle size distribution (d50, sharpness index); type: physicochemical; design: key: calculated by formula from d10, d50, d90; 1.0 = most uniform particle size; details: calculated from d10, d50, d90; trihydrate
Quick reference: sharpness index of the crystal thus obtained of the listed items.
# respond with the number and nothing more

Field: example entries. Status: answers known.
Compound: COc1ccc2[n-]c([S@@+]([O-])Cc3ncc(C)c(OC)c3C)nc2c1.COc1ccc2[n-]c([S@@+]([O-])Cc3ncc(C)c(OC)c3C)nc2c1.O.O.O.[Mg+2] [Example 10(1), esomeprazole magnesium trihydrate]
Measured Number: 1.51
//
Compound: COc1ccc2[n-]c([S@@+]([O-])Cc3ncc(C)c(OC)c3C)nc2c1.COc1ccc2[n-]c([S@@+]([O-])Cc3ncc(C)c(OC)c3C)nc2c1.O.O.O.[Mg+2] [Example 2, esomeprazole magnesium trihydrate]
Measured Number: 2.5
//
Compound: COc1ccc2[n-]c([S@@+]([O-])Cc3ncc(C)c(OC)c3C)nc2c1.COc1ccc2[n-]c([S@@+]([O-])Cc3ncc(C)c(OC)c3C)nc2c1.O.O.O.[Mg+2] [Example 8(1), esomeprazole magnesium trihydrate]
Measured Number: 2.2
//
Compound: COc1ccc2[n-]c([S@@+]([O-])Cc3ncc(C)c(OC)c3C)nc2c1.COc1ccc2[n-]c([S@@+]([O-])Cc3ncc(C)c(OC)c3C)nc2c1.O.O.O.[Mg+2] [Example 10(2), esomeprazole magnesium trihydrate]
Measured Number: 1.48
//
Compound: COc1ccc2[n-]c([S@@+]([O-])Cc3ncc(C)c(OC)c3C)nc2c1.COc1ccc2[n-]c([S@@+]([O-])Cc3ncc(C)c(OC)c3C)nc2c1.O.O.O.[Mg+2] [Example 5, esomeprazole magnesium trihydrate]
Measured Number: 1.4

Now for another entry.
**Q:** Which value of sharpness index of the crystal thus obtained has been reported for COc1ccc2[n-]c([S@@+]([O-])Cc3ncc(C)c(OC)c3C)nc2c1.COc1ccc2[n-]c([S@@+]([O-])Cc3ncc(C)c(OC)c3C)nc2c1.O.O.O.[Mg+2] [Example 7, esomeprazole magnesium trihydrate] in the records?
**A:** 1.40

====

Quick reference: sphericity of the spherulite of the listed items.
Assay: Sphericity from SEM images (ImageJ)
Format: physicochemical
Conditions: SEM image analysis, mean of particles; trihydrate
From the text: In the present description, “spherulite” means a crystal aggregate (polycrystal) which has a radial or concentric thin layered structure and has a spherical outer shape. Whether the crystal obtained by the method of the present invention is a spherulite or not can be determined, for example, by observing the outer shape of the crystal using SEM. […] The sphericity can be calculated by the following method. […]
# respond with the number and nothing more

Field: example entries. Status: answers known.
Compound: COc1ccc2[n-]c([S@@+]([O-])Cc3ncc(C)c(OC)c3C)nc2c1.COc1ccc2[n-]c([S@@+]([O-])Cc3ncc(C)c(OC)c3C)nc2c1.O.O.O.[Mg+2] [Example 6, esomeprazole magnesium trihydrate]
Measured Number: 0.96

Compound: COc1ccc2[n-]c([S@@+]([O-])Cc3ncc(C)c(OC)c3C)nc2c1.COc1ccc2[n-]c([S@@+]([O-])Cc3ncc(C)c(OC)c3C)nc2c1.O.O.O.[Mg+2] [Example 8(1), esomeprazole magnesium trihydrate]
Measured Number: 0.95

Compound: COc1ccc2[n-]c([S@@+]([O-])Cc3ncc(C)c(OC)c3C)nc2c1.COc1ccc2[n-]c([S@@+]([O-])Cc3ncc(C)c(OC)c3C)nc2c1.O.O.O.[Mg+2] [Example 2, esomeprazole magnesium trihydrate]
Measured Number: 0.95

**Q:** Which value of sphericity of the spherulite has been reported for COc1ccc2[n-]c([S@@+]([O-])Cc3ncc(C)c(OC)c3C)nc2c1.COc1ccc2[n-]c([S@@+]([O-])Cc3ncc(C)c(OC)c3C)nc2c1.O.O.O.[Mg+2] [Example 3, esomeprazole magnesium trihydrate] in the records?
**A:** 0.97

**Q:** Which value of sphericity of the spherulite has been reported for COc1ccc2[n-]c([S@@+]([O-])Cc3ncc(C)c(OC)c3C)nc2c1.COc1ccc2[n-]c([S@@+]([O-])Cc3ncc(C)c(OC)c3C)nc2c1.O.O.O.[Mg+2] [Example 10(1), esomeprazole magnesium trihydrate] in the records?
**A:** 0.97

**Q:** Which value of sphericity of the spherulite has been reported for COc1ccc2[n-]c([S@@+]([O-])Cc3ncc(C)c(OC)c3C)nc2c1.COc1ccc2[n-]c([S@@+]([O-])Cc3ncc(C)c(OC)c3C)nc2c1.O.O.O.[Mg+2] [Example 10(2), esomeprazole magnesium trihydrate] in the records?
**A:** 0.80

**Q:** Which value of sphericity of the spherulite has been reported for COc1ccc2[n-]c([S@@+]([O-])Cc3ncc(C)c(OC)c3C)nc2c1.COc1ccc2[n-]c([S@@+]([O-])Cc3ncc(C)c(OC)c3C)nc2c1.O.O.O.[Mg+2] [Example 4, esomeprazole magnesium trihydrate] in the records?
**A:** 0.93
